Tested on: Cyberlindnera jadinii
protocol_details: Antifungal against Candida utilis after 24 hrs by two fold serial dilution method
Assay type: functional
measurement_conditions: Williopsis jadinii
reported_endpoint: MIC (µg/mL)

input_smiles=CCCCCCCn1c(C(=O)/C=C/c2ccc(Cl)cc2Cl)nc2ccccc21 recorded_result=512
input_smiles=CCCCCCCCn1c(C(=O)/C=C/c2ccc(Cl)cc2Cl)nc2ccccc21 recorded_result=512
input_smiles=CCCCCCn1c(-c2cc(-c3ccc(Cl)cc3Cl)nc(N)n2)nc2ccccc21 recorded_result=512
input_smiles=CCCCCCCn1c(C(=O)/C=C/c2ccc(Cl)cc2)nc2ccccc21 recorded_result=512
input_smiles=CCCCCCCCn1c(C(=O)/C=C/c2ccc(F)cc2)nc2ccccc21 recorded_result=64

====

Attribute: log10 of MIC
Tested on: Escherichia coli
protocol_details: Antibacterial activity against Escherichia coli DH52 after 24 hrs by micro broth dilution assay
Assay type: functional
measurement_conditions: DH52, 24 h
reported_endpoint: log10 of MIC (log10 of the value in µg/mL)

input_smiles=CCCCn1c(C(=O)/C=C/c2ccc(Cl)cc2Cl)nc2ccccc21 recorded_result=2.71
input_smiles=CCCCCCn1c(C(=O)/C=C/c2ccc(C)cc2)nc2ccccc21 recorded_result=2.71
input_smiles=CCCCn1c(C(=O)/C=C/c2ccc(F)cc2)nc2ccccc21 recorded_result=1.81
input_smiles=O=C(/C=C/c1ccc(Cl)cc1Cl)c1nc2ccccc2[nH]1 recorded_result=2.71
input_smiles=CCCCCCCn1c(C(=O)/C=C/c2ccc(Cl)cc2)nc2ccccc21 recorded_result=1.51
input_smiles=Nc1nc(-c2ccc(F)cc2)cc(-c2nc3ccccc3[nH]2)n1 recorded_result=2.11
input_smiles=CCCCCCn1c(C(=O)/C=C/c2ccc(Cl)cc2Cl)nc2ccccc21 recorded_result=2.71
input_smiles=CCCCCCn1c(-c2cc(-c3ccc(Cl)cc3Cl)nc(N)n2)nc2ccccc21 recorded_result=1.81
input_smiles=CCCCCCCCn1c(C(=O)/C=C/c2ccc(Cl)cc2)nc2ccccc21 recorded_result=0.90
input_smiles=Nc1nc(-c2ccc(Cl)cc2)cc(-c2nc3ccccc3[nH]2)n1 recorded_result=2.11
input_smiles=CCCCn1c(-c2cc(-c3ccc(Cl)cc3)nc(N)n2)nc2ccccc21 recorded_result=2.11

====

System: Pseudomonas aeruginosa
protocol_details: Antibacterial activity against Pseudomonas aeruginosa incubated for 24 hrs followed by plating onto tryptic soy agar medium and measured after 24 hrs
Assay type: functional
Attribute: MBC
reported_endpoint: MBC (µg/mL)

input_smiles=CCCCn1c(-c2cc(-c3ccc(Cl)cc3)nc(N)n2)nc2ccccc21 readout_qualifier== recorded_result=512
input_smiles=CCCCCCn1c(-c2cc(-c3ccc(Cl)cc3)nc(N)n2)nc2ccccc21 readout_qualifier=> recorded_result=512
input_smiles=Cc1ccc(-c2cc(-c3nc4ccccc4[nH]3)nc(N)n2)cc1 readout_qualifier== recorded_result=8
input_smiles=CCCCn1c(-c2cc(-c3ccc(C)cc3)nc(N)n2)nc2ccccc21 readout_qualifier== recorded_result=16
input_smiles=CCCCCCCn1c(-c2cc(-c3ccc(C)cc3)nc(N)n2)nc2ccccc21 readout_qualifier== recorded_result=4

====

System: Saccharomyces cerevisiae
protocol_details: Antifungal against Saccharomyces cerevisiae after 24 hrs by two fold serial dilution method
Type: functional
reported_endpoint: MIC (µg/mL)

input_smiles=CCCCn1c(-c2cc(-c3ccc(Cl)cc3)nc(N)n2)nc2ccccc21 recorded_result=128
input_smiles=O=C(/C=C/c1ccc(F)cc1)c1nc2ccccc2[nH]1 recorded_result=4
input_smiles=CCCCCCCn1c(C(=O)/C=C/c2ccc(C)cc2)nc2ccccc21 recorded_result=512
input_smiles=CCCCCCCCn1c(C(=O)/C=C/c2ccc(F)cc2)nc2ccccc21 recorded_result=512
input_smiles=CCCCCCn1c(-c2cc(-c3ccc(Cl)cc3)nc(N)n2)nc2ccccc21 recorded_result=512
input_smiles=CCCCCCn1c(C(=O)/C=C/c2ccc(Cl)cc2Cl)nc2ccccc21 recorded_result=512

# credit: ChEMBL document CHEMBL4251572
